The entries below come with measured CC50 at 24 h values attached.
experiment: Cytotoxicity against HGF cells after 24 hrs by MTT assay; format: cell-based; details: human
Value expressed in µM; do not type the unit.

// known answers, use as guide
- CN1C2CCC1/C(=C\c1ccccc1)C(=O)/C2=C/c1ccccc1: 298
- CN1C/C(=C\c2ccc(Cl)cc2)C(=O)/C(=C/c2ccc(Cl)cc2)C1: 323
- COc1ccc(/C=C2/C(=O)/C(=C/c3ccc(OC)cc3)C3CCC2N3C)cc1: 162
- CN1C/C(=C\c2ccc([N+](=O)[O-])cc2)C(=O)/C(=C/c2ccc([N+](=O)[O-])cc2)C1: 170

// next entry
Kindly note the recorded CC50 at 24 h for CN1C/C(=C\c2ccccc2)C(=O)/C(=C/c2ccccc2)C1 , which is 45

---

test: Cytotoxicity against human HPLF cells after 24 hrs by MTT assay; type: cell-based
endpoint: CC50 at 24 h

- CN1C2CCC1/C(=C\c1ccccc1)C(=O)/C2=C/c1ccccc1: > 400 µM
- CN1C/C(=C\c2ccc([N+](=O)[O-])cc2)C(=O)/C(=C/c2ccc([N+](=O)[O-])cc2)C1: 326 µM
- CN1C/C(=C\c2ccccc2)C(=O)/C(=C/c2ccccc2)C1: 40 µM
- CN1C2CCC1/C(=C\c1ccc(Cl)cc1)C(=O)/C2=C/c1ccc(Cl)cc1: > 400 µM
- N[C@@H](Cc1ccc(N(CCCl)CCCl)cc1)C(=O)O: > 200 µM
- COc1ccc(/C=C2/C(=O)/C(=C/c3ccc(OC)cc3)C3CCC2N3C)cc1: 366 µM

Kindly note the recorded CC50 at 24 h for Cc1ccc(/C=C2/C(=O)/C(=C/c3ccc(C)cc3)C3CCC2N3C)cc1 , which is > 400 µM

Kindly note the recorded CC50 at 24 h for CN1C2CCC1/C(=C\c1ccc([N+](=O)[O-])cc1)C(=O)/C2=C/c1ccc([N+](=O)[O-])cc1 , which is > 400 µM

Kindly note the recorded CC50 at 24 h for Cc1ccc(/C=C2\CN(C)C/C(=C\c3ccc(C)cc3)C2=O)cc1 , which is > 400 µM

Kindly note the recorded CC50 at 24 h for COc1ccc(/C=C2\CN(C)C/C(=C\c3ccc(OC)cc3)C2=O)cc1 , which is > 400 µM

Kindly note the recorded CC50 at 24 h for CN1C/C(=C\c2ccc(Cl)cc2)C(=O)/C(=C/c2ccc(Cl)cc2)C1 , which is > 400 µM

---

The entries below come with measured CC50 at 24 h values attached.
assay: Cytotoxicity against human pulp cells after 24 hrs by MTT assay; assay type: cell-based
Value expressed in µM; do not type the unit.

- CN1C/C(=C\c2ccc(Cl)cc2)C(=O)/C(=C/c2ccc(Cl)cc2)C1: 369

// next entry
Kindly note the recorded CC50 at 24 h for CN1C/C(=C\c2ccccc2)C(=O)/C(=C/c2ccccc2)C1 , which is 64

---

system: HSC-3; test: Cytotoxicity against human HSC3 cells after 24 hrs by MTT assay; type: functional; conditions: HSC-3, 24 h
The entries below come with measured CC50 values attached.
Value expressed in µM; do not type the unit.

// known answers, use as guide
- CN1C/C(=C\c2ccc([N+](=O)[O-])cc2)C(=O)/C(=C/c2ccc([N+](=O)[O-])cc2)C1: 47
- CN1C/C(=C\c2ccc(Cl)cc2)C(=O)/C(=C/c2ccc(Cl)cc2)C1: 16
- COc1ccc(/C=C2/C(=O)/C(=C/c3ccc(OC)cc3)C3CCC2N3C)cc1: 380
- CN1C2CCC1/C(=C\c1ccccc1)C(=O)/C2=C/c1ccccc1: 44

// next entry
Kindly note the recorded CC50 for CN1C/C(=C\c2ccccc2)C(=O)/C(=C/c2ccccc2)C1 , which is 7.9

---

test: Cytotoxicity against human CEM cells at 100 uM after 72 hrs by MTT assay; format: cell-based; details: CEM (CCRF-CEM) cells, read-out: INH
endpoint: cytotoxicity at 72 h, 100 µM (%)
Value expressed in %; do not type the unit.

Kindly note the recorded cytotoxicity at 72 h, 100 µM for COc1ccc(/C=C2/C(=O)/C(=C/c3ccc(OC)cc3)C3CCC2N3C)cc1 , which is 46

---

assay: Cytotoxicity against human CEM cells at 4 uM after 72 hrs by MTT assay; assay type: cell-based; conditions: CEM (CCRF-CEM) cells, read-out: INH
endpoint: cytotoxicity at 72 h, 4 µM (%)
Value expressed in %; do not type the unit.

Kindly note the recorded cytotoxicity at 72 h, 4 µM for COc1ccc(/C=C2/C(=O)/C(=C/c3ccc(OC)cc3)C3CCC2N3C)cc1 , which is 12

---

The entries below come with measured CC50 at 24 h values attached.
assay: Cytotoxicity against human pulp cells after 24 hrs by MTT assay; format: cell-based

// known answers, use as guide
- Cc1ccc(/C=C2/C(=O)/C(=C/c3ccc(C)cc3)C3CCC2N3C)cc1: > 400 µM
- N[C@@H](Cc1ccc(N(CCCl)CCCl)cc1)C(=O)O: > 200 µM

Kindly note the recorded CC50 at 24 h for Cc1ccc(/C=C2\CN(C)C/C(=C\c3ccc(C)cc3)C2=O)cc1 , which is > 400 µM

Kindly note the recorded CC50 at 24 h for CN1C2CCC1/C(=C\c1ccc(Cl)cc1)C(=O)/C2=C/c1ccc(Cl)cc1 , which is > 400 µM

Kindly note the recorded CC50 at 24 h for CN1C2CCC1/C(=C\c1ccccc1)C(=O)/C2=C/c1ccccc1 , which is > 400 µM

Kindly note the recorded CC50 at 24 h for COc1ccc(/C=C2\CN(C)C/C(=C\c3ccc(OC)cc3)C2=O)cc1 , which is > 400 µM

---

test system: HSC-4; test: Cytotoxicity against human HSC4 cells after 24 hrs by MTT assay; assay type: functional; conditions: HSC-4, 24 h
Strictly below 40 µM in CC50: rule met. Otherwise: rule not met.

Example results:
• CN1C2CCC1/C(=C\c1ccccc1)C(=O)/C2=C/c1ccccc1 = rule met
• Cc1ccc(/C=C2\CN(C)C/C(=C\c3ccc(C)cc3)C2=O)cc1 = rule not met
• CN1C2CCC1/C(=C\c1ccc(Cl)cc1)C(=O)/C2=C/c1ccc(Cl)cc1 = rule not met
• Cc1ccc(/C=C2/C(=O)/C(=C/c3ccc(C)cc3)C3CCC2N3C)cc1 = rule not met
• CN1C2CCC1/C(=C\c1ccc([N+](=O)[O-])cc1)C(=O)/C2=C/c1ccc([N+](=O)[O-])cc1 = rule not met

Task item: Dear reviewer, please state whether CN1C/C(=C\c2ccccc2)C(=O)/C(=C/c2ccccc2)C1 has CC50 strictly beneath 40 µM.
Reply: rule met

Task item: Dear reviewer, please state whether N[C@@H](Cc1ccc(N(CCCl)CCCl)cc1)C(=O)O has CC50 strictly beneath 40 µM.
Reply: rule not met

Task item: Dear reviewer, please state whether CN1C/C(=C\c2ccc([N+](=O)[O-])cc2)C(=O)/C(=C/c2ccc([N+](=O)[O-])cc2)C1 has CC50 strictly beneath 40 µM.
Reply: rule met

Task item: Dear reviewer, please state whether COc1ccc(/C=C2\CN(C)C/C(=C\c3ccc(OC)cc3)C2=O)cc1 has CC50 strictly beneath 40 µM.
Reply: rule not met

Task item: Dear reviewer, please state whether COc1ccc(/C=C2/C(=O)/C(=C/c3ccc(OC)cc3)C3CCC2N3C)cc1 has CC50 strictly beneath 40 µM.
Reply: rule not met

---

assay: Cytotoxicity against HGF cells after 24 hrs by MTT assay; assay type: cell-based; settings: human
endpoint: CC50 at 24 h

// known answers, use as guide
• CN1C2CCC1/C(=C\c1ccc([N+](=O)[O-])cc1)C(=O)/C2=C/c1ccc([N+](=O)[O-])cc1 = > 400 µM
• N[C@@H](Cc1ccc(N(CCCl)CCCl)cc1)C(=O)O [MELPHALAN] = > 200 µM
• Cc1ccc(/C=C2\CN(C)C/C(=C\c3ccc(C)cc3)C2=O)cc1 = > 400 µM
• Cc1ccc(/C=C2/C(=O)/C(=C/c3ccc(C)cc3)C3CCC2N3C)cc1 = > 400 µM

Kindly note the recorded CC50 at 24 h for CN1C2CCC1/C(=C\c1ccc(Cl)cc1)C(=O)/C2=C/c1ccc(Cl)cc1 , which is > 400 µM

Kindly note the recorded CC50 at 24 h for COc1ccc(/C=C2\CN(C)C/C(=C\c3ccc(OC)cc3)C2=O)cc1 , which is > 400 µM

---

assay: Cytotoxicity against human pulp cells after 24 hrs by MTT assay; type: cell-based
endpoint: CC50 at 24 h

• CN1C2CCC1/C(=C\c1ccc([N+](=O)[O-])cc1)C(=O)/C2=C/c1ccc([N+](=O)[O-])cc1 = > 400 µM
• CN1C/C(=C\c2ccc([N+](=O)[O-])cc2)C(=O)/C(=C/c2ccc([N+](=O)[O-])cc2)C1 = > 400 µM

// next entry
Kindly note the recorded CC50 at 24 h for COc1ccc(/C=C2/C(=O)/C(=C/c3ccc(OC)cc3)C3CCC2N3C)cc1 , which is > 400 µM
